Readings of pIC50 for the listed molecules
Biological target: human CTPS1 (Homo sapiens)
Construct: purchased Proteros biostructures GmbH
Sequence (P17812 1-591): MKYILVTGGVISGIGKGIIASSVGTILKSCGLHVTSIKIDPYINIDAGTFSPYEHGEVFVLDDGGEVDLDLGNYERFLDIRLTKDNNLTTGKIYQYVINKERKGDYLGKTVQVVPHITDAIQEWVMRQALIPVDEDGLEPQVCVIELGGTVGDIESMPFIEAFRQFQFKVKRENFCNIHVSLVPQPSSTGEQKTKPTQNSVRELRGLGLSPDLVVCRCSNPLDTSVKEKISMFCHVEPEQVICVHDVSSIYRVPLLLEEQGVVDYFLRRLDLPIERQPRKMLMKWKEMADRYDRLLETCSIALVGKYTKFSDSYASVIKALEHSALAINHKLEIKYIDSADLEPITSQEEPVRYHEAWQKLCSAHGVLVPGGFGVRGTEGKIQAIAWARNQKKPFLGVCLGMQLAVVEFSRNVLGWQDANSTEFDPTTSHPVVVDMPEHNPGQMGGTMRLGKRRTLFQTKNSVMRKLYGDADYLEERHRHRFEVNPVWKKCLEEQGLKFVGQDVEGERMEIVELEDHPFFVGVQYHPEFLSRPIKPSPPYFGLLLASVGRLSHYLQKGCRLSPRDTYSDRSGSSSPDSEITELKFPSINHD
Assay: Human CTPS1 enzyme inhibition (ADP-Glo Max assay)
Assay type: biochemical
Conditions: Table 17, 25° C., read-out: CTPS1 (Human CTPS1 Enzyme Inhibition data grouped by potency range)
pIC50: −log10 of the molar value.

Study these solved cases before continuing.
> print(dat)
                                    molecule  reported.result
 1  CCCOc1cncc(-c2ccc(NC(=O)C(CC)c3csc(NS(=O)(=O)C4CC4)n3)nc2)n1 (centres unmarked)           > 7.00
 2  CCOc1cncc(-c2ccc(NC(=O)C(C)(C)c3nc(NS(=O)(=O)C4CC4)sc3C)cc2)n1     6.00 to 7.00
 3  CC(C)(C(=O)Nc1ccc(-c2cccc(C#N)c2)cc1)c1csc(NS(=O)(=O)C2CC2)n1     6.00 to 7.00
 4  CCC(C(=O)Nc1ccc(-c2cccnc2)cc1Cl)c1csc(NS(=O)(=O)C2CC2)n1 (centres unmarked)           > 7.00
 5  Cc1sc(NS(=O)(=O)C2CC2)nc1C(C)(C)C(=O)Nc1ccc(-c2cncc(Cl)c2)cc1     6.00 to 7.00
 6  CCC(C(=O)Nc1ccc(-c2cncc(OC(F)F)c2)cc1)c1csc(NS(=O)(=O)C2CC2)n1 (centres unmarked)           > 7.00
 7  O=C(Nc1ccc(-c2cccnc2)cc1)C(F)(F)c1csc(NS(=O)(=O)C2CC2)n1           > 7.00
 8  CCC(C(=O)Nc1ccc(-c2cncc(C#N)c2)cn1)c1csc(NS(=O)(=O)C2CC2)n1 (centres unmarked)           > 7.00
 9  CC(C)C(C(=O)Nc1ccc(-c2cccnc2)cc1)c1csc(NS(=O)(=O)C2CC2)n1 (single isomer, unassigned) [T14]     6.00 to 7.00
10  CCC(C(=O)Nc1ccc(-c2cncc(OCC(F)(F)F)c2)cc1F)c1csc(NS(=O)(=O)C2CC2)n1 (centres unmarked)           > 7.00

Fill in: pIC50 of CCC(C(=O)Nc1ccc(-c2cncc(C#N)c2)cc1)c1csc(NS(=O)(=O)C2CC2)n1 (centres unmarked) is ___ > 7.00

Request: CCC(C(=O)Nc1ccc(-c2cncc(Cl)n2)cn1)c1csc(NS(=O)(=O)C2CC2)n1 (centres unmarked) > 7.00

Request: CCC(C(=O)Nc1ccc(-c2ccccc2)cn1)c1csc(NS(=O)(=O)C2CC2)n1 (centres unmarked) 6.00 to 7.00

Request: O=C(Nc1ccc(-c2ccccc2)cc1)C1CCCc2sc(NS(=O)(=O)C3CC3)nc21 (centres unmarked) 5.00 to 6.00

Request: CC(C(=O)Nc1ccc(-c2cccnc2)cc1)c1csc(NS(=O)(=O)C2CC2)n1 (centres unmarked) > 7.00

Request: CCOc1cncc(-c2ccc(NC(=O)C(C)c3csc(NS(=O)(=O)C4CC4)n3)cc2)c1 (centres unmarked) > 7.00

Request: C#Cc1cncc(-c2ccc(NC(=O)C(CC)c3csc(NS(=O)(=O)C4CC4)n3)cc2)n1 (centres unmarked) > 7.00

====

Readings of IC50 for the listed compounds
target: human CTPS1 (Homo sapiens, UniProt P17812); construct: purchased Proteros biostructures GmbH; test: Human CTPS1 enzyme inhibition (ADP-Glo Max assay); type: biochemical; details: Table 18, additional potency data, 25° C., read-out: CTPS1 (Human CTPS1 Enzyme Inhibition data grouped by potency range)

> print(dat)
                                   compound                                 tested.on  reported.result
1  CCC(C(=O)Nc1ccc(-c2cncc(C#N)n2)cc1F)c1csc(NS(=O)(=O)C2CC2)n1 (centres unmarked) [T404]  human CTPS1 (Homo sapiens, UniProt P17812)      0.1 to 1 µM
2  CCOc1cncc(-c2ccc(NC(=O)C(c3csc(NS(=O)(=O)C4CC4)n3)N(C)C)cc2)n1 (centres unmarked) [T328]  human CTPS1 (Homo sapiens, UniProt P17812)         < 0.1 µM
3  CCOc1cncc(-c2ccc(NC(=O)C(NC(=O)OC)c3csc(NS(=O)(=O)C4CC4)n3)cc2)n1 (centres unmarked) [T327]  human CTPS1 (Homo sapiens, UniProt P17812)         < 0.1 µM
4  CCS(=O)(=O)Nc1nc(C(C)(C)C(=O)Nc2ccc(-c3cncc(C(F)(F)F)c3)cn2)cs1 [T380]  human CTPS1 (Homo sapiens, UniProt P17812)         < 0.1 µM
5  CCOc1cncc(-c2cnc(NC(=O)C(CC)c3csc(NS(=O)(=O)C4CC4)n3)c(F)c2)n1 (single isomer, unassigned) [T456]  human CTPS1 (Homo sapiens, UniProt P17812)         < 0.1 µM

Item: COC(C(=O)Nc1ccc(-c2cncc(C(F)(F)F)n2)cc1F)c1csc(NS(C)(=O)=O)n1 (centres unmarked) [T452] Test system: human CTPS1 (Homo sapiens, UniProt P17812) Read-out: IC50 Value: ? < 0.1 µM

Request: NC(C(=O)Nc1ccc(-c2cncc(C(F)(F)F)n2)cc1F)c1csc(NS(=O)(=O)C2CC2)n1 (centres unmarked) [T418] 0.1 to 1 µM

Request: CCS(=O)(=O)Nc1nc(C(C)(C)C(=O)Nc2ccc(-c3cccnc3)cc2)cs1 [T386] 0.1 to 1 µM

Request: CCNc1cncc(-c2ccc(NC(=O)C(CC)c3csc(NS(=O)(=O)C4CC4)n3)cc2)n1 (centres unmarked) [T444] < 0.1 µM

Request: CCOc1cncc(-c2ccc(NC(=O)C(NC(C)=O)c3csc(NS(=O)(=O)C4CC4)n3)cc2)n1 (centres unmarked) [T326] < 0.1 µM

Request: CCc1cncc(-c2ccc(NC(=O)C(CC)c3csc(NS(=O)(=O)C4CC4)n3)c(F)c2)n1 (centres unmarked) [T405] < 0.1 µM

====

target: human CTPS1 (Homo sapiens); construct: purchased Proteros biostructures GmbH; assay: Human CTPS1 enzyme inhibition (ADP-Glo Max assay); type: biochemical; settings: Table 17, 25° C., read-out: CTPS1 (Human CTPS1 Enzyme Inhibition data grouped by potency range)
pIC50: −log10 of the molar value.
Readings of pIC50 for the listed molecules

Study these solved cases before continuing.
> print(dat)
                                   molecule  reported.result
1  O=C(Nc1ccc(-c2cccnc2)cc1)C1CCc2sc(NS(=O)(=O)C3CC3)nc21 (centres unmarked)     6.00 to 7.00
2  CCCOc1cncc(-c2ccc(NC(=O)C(CC)c3csc(NS(=O)(=O)C4CC4)n3)cc2)n1 (centres unmarked)           > 7.00
3  CC(C)OC(C(=O)Nc1ccc(-c2cncc(Cl)c2)cc1)c1csc(NS(=O)(=O)C2CC2)n1 (centres unmarked)           > 7.00

Item: CCC(C(=O)Nc1ccc(-c2cncc(C#N)n2)cn1)c1csc(NS(=O)(=O)C2CC2)n1 (centres unmarked) Test system: human CTPS1 (Homo sapiens) Read-out: pIC50 Value: ? 5.00 to 6.00

Request: CC(C)(C(=O)Nc1ccc(-c2cccnc2)c(Cl)c1)c1csc(NS(=O)(=O)C2CC2)n1 6.00 to 7.00

Request: COCCC(C(=O)Nc1ccc(-c2cncc(OC)n2)cc1)c1csc(NS(=O)(=O)C2CC2)n1 (centres unmarked) > 7.00

Request: CC(C)(C(=O)Nc1ncc(-c2cncc(C#N)c2)cn1)c1csc(NS(=O)(=O)C2CC2)n1 6.00 to 7.00

Request: CCOc1cncc(-c2ccc(NC(=O)C(CC)c3csc(NS(=O)(=O)C4CC4)n3)c(F)c2)c1 (centres unmarked) > 7.00
